# Tested on: PC-3
# PROCEDURE_TEXT: cells
# CONDITION_DESCRIPTION: Homo sapiens, PC-3, 48 h
# Description: Antiproliferative activity against human PC-3 cells after 48 hrs by MTT assay
pIC50: −log10 of the molar value.

{"ENTRY_SMILES": "Nc1ccn([C@@H]2O[C@H](CO)[C@@H](O)C2(F)F)c(=O)n1", "pIC50": 6.66}
{"ENTRY_SMILES": "CC(C)C[C@H](NC(=O)[C@@H](O)[C@H](N)Cc1ccccc1)C(=O)Nc1ccn([C@@H]2O[C@H](CO)[C@@H](O)C2(F)F)c(=O)n1.Cl", "pIC50": 6.59}

###

pIC50 values for the compounds below.
# Tested on: HeLa
# PROCEDURE_TEXT: cells
# CONDITION_DESCRIPTION: Homo sapiens, 48 h
pIC50: −log10 of the molar value.

{"ENTRY_SMILES": "CC(C)C[C@H](NC(=O)[C@@H](O)[C@H](N)Cc1ccccc1)C(=O)O", "QUALIFYING_SIGN": "<", "pIC50": 3.30}
{"ENTRY_SMILES": "CC(C)C[C@H](NC(=O)[C@@H](O)[C@H](N)Cc1ccccc1)C(=O)Nc1ccn([C@@H]2O[C@H](CO)[C@@H](O)C2(F)F)c(=O)n1.Cl", "QUALIFYING_SIGN": "=", "pIC50": 5.26}
{"ENTRY_SMILES": "Nc1ccn([C@@H]2O[C@H](CO)[C@@H](O)C2(F)F)c(=O)n1", "QUALIFYING_SIGN": "=", "pIC50": 5.56}
